Subject of test: Toll-like receptor 4 (Mus musculus)
Measured attribute: pIC50
In textbook form, pIC50 equals minus log to base ten of the concentration in mol/L.

Smiles string | pIC50
O=C1CC[C@]2(O)[C@@H]3Cc4ccc(O)c5c4[C@]2(CCN3CCc2ccccc2F)[C@@H]1O5 | 5.74

Q: Form field - read-out: pIC50; system: Toll-like receptor 4 (Mus musculus); submitted item: `CCCCCCCN1CC[C@@]23c4c5ccc(O)c4O[C@@H]2C(=O)CC[C@]3(O)[C@@H]1C5`
A: 5.52

Q: # get_value(readout= pIC50, system= Toll-like receptor 4 (Mus musculus)) for `O=C1CC[C@]2(O)[C@@H]3Cc4ccc(O)c5c4[C@]2(CCN3CCCCCc2ccccc2)[C@@H]1O5`
A: 5.77

Q: I'm curious: which pIC50 was measured for `CCCCCCN1CC[C@@]23C=CCC[C@]2(O)[C@@H]1Cc1ccc(O)cc13` tested on Toll-like receptor 4 (Mus musculus)?
A: 4.65

Q: Identify the measured pIC50 of `O=C1CC[C@]2(O)[C@@H]3Cc4ccc(O)c5c4[C@]2(CCN3CC2CC2)[C@@H]1O5` for Toll-like receptor 4 (Mus musculus).
A: 3.98

Q: Short answer please: pIC50, Toll-like receptor 4 (Mus musculus), entry `CCCCCCN1CC[C@@]23c4c5ccc(O)c4O[C@@H]2C(=O)CC[C@]3(O)[C@@H]1C5`
A: 5.17

Q: Item: `Oc1ccc2c(c1)[C@]13CCCC[C@]1(O)[C@H](C2)N(CC1CC1)CC3` Test system: Toll-like receptor 4 (Mus musculus) Read-out: pIC50 Value: ?
A: 4.31

Q: Query pIC50 on Toll-like receptor 4 (Mus musculus) for `O=C1CC[C@]2(O)[C@@H]3Cc4ccc(O)c5c4[C@]2(CCN3CCCc2ccccc2)[C@@H]1O5`
A: 5.85

====

IC50, Toll-like receptor 4 (Mus musculus, UniProt Q9QUK6): measured values
Give the number; µM is assumed, so skip it.

In the examples that follow, each entry is paired with its recorded IC50.
Smiles string | IC50, µM
CCCCCCN1CC[C@@]23CCCC[C@]2(O)[C@@H]1Cc1ccc(O)cc13 | 5.2
CCCCN1CC[C@@]23c4c5ccc(O)c4O[C@@H]2C(=O)CC[C@]3(O)[C@@H]1C5 | 24.8
CCCCCCCCN1CC[C@@]23c4c5ccc(O)c4O[C@@H]2C(=O)CC[C@]3(O)[C@@H]1C5 | 1.7
O=C1CC[C@]2(O)[C@@H]3Cc4ccc(O)cc4[C@]2(CCN3CC2CC2)C1 | 118
O=C1CC[C@]2(O)CN(CC3CC3)CC[C@]23c2cccc(O)c2O[C@H]13 | 76.2

Q: Give the reported IC50 for `CCCCCN1CC[C@@]23c4c5ccc(O)c4O[C@@H]2C(=O)CC[C@]3(O)[C@@H]1C5` (system: Toll-like receptor 4 (Mus musculus, UniProt Q9QUK6)).
Sequence (Q9QUK6 whole entry): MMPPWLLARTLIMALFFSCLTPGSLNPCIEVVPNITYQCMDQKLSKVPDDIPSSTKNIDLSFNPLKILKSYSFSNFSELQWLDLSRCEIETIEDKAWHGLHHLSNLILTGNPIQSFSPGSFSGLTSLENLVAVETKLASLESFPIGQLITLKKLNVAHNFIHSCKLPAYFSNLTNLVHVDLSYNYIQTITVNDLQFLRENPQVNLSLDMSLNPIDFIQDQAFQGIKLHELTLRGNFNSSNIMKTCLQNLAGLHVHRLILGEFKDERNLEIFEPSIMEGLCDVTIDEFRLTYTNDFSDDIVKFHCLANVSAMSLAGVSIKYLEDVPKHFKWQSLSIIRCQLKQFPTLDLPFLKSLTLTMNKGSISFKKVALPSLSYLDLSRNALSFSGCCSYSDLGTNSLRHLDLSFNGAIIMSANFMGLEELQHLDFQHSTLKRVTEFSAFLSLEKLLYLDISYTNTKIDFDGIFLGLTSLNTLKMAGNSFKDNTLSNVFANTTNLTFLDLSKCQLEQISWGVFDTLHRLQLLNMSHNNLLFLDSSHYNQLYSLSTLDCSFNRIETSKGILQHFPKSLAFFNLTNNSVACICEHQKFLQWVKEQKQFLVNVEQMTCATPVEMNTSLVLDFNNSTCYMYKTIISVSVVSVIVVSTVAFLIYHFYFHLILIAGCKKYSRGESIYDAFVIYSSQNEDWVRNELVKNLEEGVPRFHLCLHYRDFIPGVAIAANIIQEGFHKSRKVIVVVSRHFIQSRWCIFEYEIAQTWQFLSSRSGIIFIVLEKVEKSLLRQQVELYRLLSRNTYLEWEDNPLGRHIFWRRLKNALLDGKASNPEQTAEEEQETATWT
A: 7.5

Q: # query: IC50 | item `COc1ccc2c3c1O[C@@H]1C(=O)CC[C@]4(O)C(C2)N(CCc2ccccc2)CC[C@@]314` | system: Toll-like receptor 4 (Mus musculus, UniProt Q9QUK6)
A: 5.7

Q: # get_value(readout= IC50, system= Toll-like receptor 4 (Mus musculus, UniProt Q9QUK6)) for `O=C1CC[C@]2(O)[C@@H]3Cc4ccc(O)c5c4[C@]2(CCN3CCc2ccccc2)[C@@H]1O5`
A: 1.4

Q: Find the measured IC50: item `Oc1ccc2c3c1O[C@@H]1[C@H](O)CC[C@]4(O)[C@H](C2)N(CC2CC2)CC[C@@]314` , target or system Toll-like receptor 4 (Mus musculus, UniProt Q9QUK6).
A: 144

Q: Lab request: please report IC50 under test system Toll-like receptor 4 (Mus musculus, UniProt Q9QUK6) for `Oc1ccc2c3c1O[C@@H]1[C@@H](O)CC[C@]4(O)[C@H](C2)N(CC2CC2)CC[C@@]314`
A: 243

Q: API: value(readout=IC50, system=Toll-like receptor 4 (Mus musculus, UniProt Q9QUK6)) for record `O=C1CC[C@]2(O)[C@@H]3Cc4ccc(O)c5c4[C@]2(CCN3CCCCc2ccccc2)[C@@H]1O5`
A: 1.2
